biological target: hepatitis C virus RNA dependant polymerase (NS5B) (Hepatitis C virus genotype 1b); assay: Inhibition of NS5B RNA dependent RNA polymerase activity; assay type: biochemical; settings: Table 4; class ranges
Listing of entries alongside the reported IC50.

May I ask what IC50 has been recorded for CNc1nc(C2(NC(=O)c3ccc4c(C5CCCCC5)c(-c5ccoc5)n(CC(=O)N5CCC(N6CCCC6)CC5)c4c3)CCC2)cs1 [Example 4103] ?
< 0.2 µM

May I ask what IC50 has been recorded for CN1CCC(NC(=O)c2ccc3c(C4CCCCC4)c(-c4ccoc4)n(CC(=O)N4CCOCC4)c3c2)(c2nc3ccc(C=CC(=O)O)cc3[nH]2)C1 (stereo not drawn) [Example 4069] ?
< 0.2 µM

May I ask what IC50 has been recorded for Cc1nc(C2(NC(=O)c3ccc4c(C5CCCCC5)c(-c5ccoc5)n(CC(=O)N5CCOCC5)c4c3)CCC2)cs1 [Example 4098] ?
0.2 to 1 µM

###

Biological target: hepatitis C virus RNA dependant polymerase (NS5B) (Hepatitis C virus genotype 1b, UniProt P26663)
Sequence (P26663 2420-3010): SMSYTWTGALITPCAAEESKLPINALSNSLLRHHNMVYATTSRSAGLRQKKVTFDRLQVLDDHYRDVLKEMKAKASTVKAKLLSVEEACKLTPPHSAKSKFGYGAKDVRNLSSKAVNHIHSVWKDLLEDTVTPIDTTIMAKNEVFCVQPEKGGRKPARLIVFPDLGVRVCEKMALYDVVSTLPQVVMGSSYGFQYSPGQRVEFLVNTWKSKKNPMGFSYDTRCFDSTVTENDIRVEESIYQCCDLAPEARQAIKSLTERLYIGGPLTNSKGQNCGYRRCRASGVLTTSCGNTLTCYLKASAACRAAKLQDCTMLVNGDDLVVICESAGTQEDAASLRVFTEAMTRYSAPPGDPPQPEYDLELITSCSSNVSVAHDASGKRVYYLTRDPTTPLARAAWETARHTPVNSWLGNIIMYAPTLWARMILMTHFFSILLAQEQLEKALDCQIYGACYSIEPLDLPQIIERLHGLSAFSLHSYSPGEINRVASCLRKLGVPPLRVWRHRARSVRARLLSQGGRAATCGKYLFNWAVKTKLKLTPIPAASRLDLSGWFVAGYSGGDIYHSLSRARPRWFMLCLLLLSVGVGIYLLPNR
Assay: Inhibition of NS5B RNA dependent RNA polymerase activity
Type: biochemical
Details: Table 1; HCV NS5B polymerase
Method: A suitable assay is described in the examples. Inhibition of NS5B RNA Dependent RNA Polymerase Activity The compounds of the invention were tested for inhibitory activity against the hepatitis C virus RNA dependant polymerase (NS5B), according to protocol described in WO 03/010141
Listing of entries alongside the reported IC50.

O=C(O)c1ccc2c(C3CCCCC3)c(-c3ccoc3)n(CC(=O)N3CC[C@@H]4CCCC[C@@H]4C3)c2c1 : 1000 to 10000 nM
CC(C)[C@@H](C(=O)O)N(C)C(=O)Cn1c(-c2ccoc2)c(C2CCCCC2)c2ccc(C(=O)O)cc21 : < 200 nM
CN(C)C(=O)Cn1c(-c2ccccn2)c(C2CCCCC2)c2ccc(C(=O)O)cc21 : 200 to 1000 nM
CCN(CCN(C)C)C(=O)Cn1c(-c2ccoc2)c(C2CCCCC2)c2ccc(C(=O)O)cc21 : 200 to 1000 nM
CN(C)CCN(C)C(=O)Cn1c(-c2ccoc2)c(C2CCCCC2)c2ccc(C(=O)O)cc21 : < 200 nM
O=C(Cn1c(-c2ccoc2)c(C2CCCCC2)c2ccc(C(=O)O)cc21)NCc1ccc(C(=O)O)cc1 : < 200 nM

May I ask what IC50 has been recorded for CN(C)C(=O)Cn1c(-c2ccoc2)c(C2CCCCC2)c2ccc(C(=O)O)cc21 ?
< 200 nM

May I ask what IC50 has been recorded for O=C(O)c1ccc2c(C3CCCCC3)c(-c3ccccn3)n(CC(=O)N3CCCC3)c2c1 ?
200 to 1000 nM

May I ask what IC50 has been recorded for CN(C)C(=O)Cn1c(-c2ccc(Br)cn2)c(C2CCCCC2)c2ccc(C(=O)O)cc21 ?
200 to 1000 nM

May I ask what IC50 has been recorded for CNC(=O)Cn1c(-c2ccoc2)c(C2CCCCC2)c2ccc(C(=O)O)cc21 ?
200 to 1000 nM

May I ask what IC50 has been recorded for CC(C)(NC(=O)Cn1c(-c2ccoc2)c(C2CCCCC2)c2ccc(C(=O)O)cc21)C(=O)Nc1ccc(-c2ccc(C(=O)O)o2)cc1 ?
< 200 nM
